# target: NAD-dependent protein deacetylase sirtuin-2 (Homo sapiens, UniProt Q8IXJ6)
# Sequence (Q8IXJ6 whole entry): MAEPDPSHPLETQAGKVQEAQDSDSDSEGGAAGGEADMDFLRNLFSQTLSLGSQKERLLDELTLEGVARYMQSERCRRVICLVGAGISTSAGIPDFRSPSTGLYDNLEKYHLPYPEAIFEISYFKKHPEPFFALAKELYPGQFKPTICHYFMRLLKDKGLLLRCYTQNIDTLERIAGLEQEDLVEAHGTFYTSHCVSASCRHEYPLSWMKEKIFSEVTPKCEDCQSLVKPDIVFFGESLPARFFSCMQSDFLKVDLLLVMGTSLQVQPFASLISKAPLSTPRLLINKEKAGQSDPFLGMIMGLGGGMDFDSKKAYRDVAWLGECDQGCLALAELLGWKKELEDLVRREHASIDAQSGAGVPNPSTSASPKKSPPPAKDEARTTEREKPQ
readout: pIC50
When answering, recall that pIC50 equals minus log10 of the concentration in mol/L, and write that number alone.

Lab entry: NAD-dependent protein deacetylase sirtuin-2 (Homo sapiens, UniProt Q8IXJ6) assay, compound O=C(NCc1cccnc1)c1ccc2c(c1)C1C3CCC(C3)C1C(c1ccccc1)N2 (stereo unspecified) , pIC50 = 5.42
